system: T1, human VEGF (human, UniProt P15692-4 27-191)
T1 construct: Bought recombinant protein; also called hVEGF; human VEGF-A
T1 sequence (P15692 other isoform, or with tags, fused parts or gaps limits assumed): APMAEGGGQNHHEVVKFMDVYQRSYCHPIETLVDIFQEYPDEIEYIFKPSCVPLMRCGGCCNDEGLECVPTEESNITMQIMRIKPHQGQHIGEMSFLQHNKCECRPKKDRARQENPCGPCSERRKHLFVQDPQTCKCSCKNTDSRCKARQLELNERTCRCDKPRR
assay-summary: SPR (BIAcore X100), VEGF on CM5 chip, IgG injected, 1:1 Langmuir
Source text: Meanwhile, to measure the affinity, human VEGF and mouse VEGF were coupled to carboxymethylated dextran biosensor chips (CM5, GE) according to the manufacturer's instructions. The association and dissociation rates were expressed by the association and dissociation sensorgram, and calculated using a simple 1:1 Langmuir binding model (BIAcore X100 evaluation software, ver. 2.0).
measure: kon

Read the entry HF2-11 (antibody, V domains shown, also called HF-11; clone HF2-11) VH: EVQLVESGGGLVQPGGSLRLSCAASGFLIRSHGMQWVRQAPGKGLEYVAGISSDGSWVKVAAAVEGRFTISRDDSKNTAYLQMNSLRAEDTAVYYCARDFSTGYGADSIDAWGQGTLVTVSS VL: DIQMTQSPSSLSASVGDRVTITCSGGSSEPLGYGWYQQKPGKAPKTLIYWDDKRPSGVPSRFSGSRSGTDFTLTISSLQPEDFATYYCGAWEYSGGVGIFGQGTKVEIK and write its reported kon.
1.4e+06 M⁻¹ s⁻¹

Read the entry HF2-6 (antibody, V domains shown) VH: EVQLVESGGGLVQPGGSLRLSCAASRFLLRSHGMQWVRQAPGKGLEYVAGISSDGSWFRVAAAVEGRFTISRDDSKNTAYLQMNSLRAEDTAVYYCARDFSTGYGADSIDAWGQGTLVTVSS VL: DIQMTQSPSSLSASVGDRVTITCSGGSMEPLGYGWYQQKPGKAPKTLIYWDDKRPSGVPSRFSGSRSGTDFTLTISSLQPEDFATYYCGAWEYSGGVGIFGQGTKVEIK and write its reported kon.
1.6e+06 M⁻¹ s⁻¹

Read the entry HF2-7 (antibody, V domains shown) VH: EVQLVESGGGLVQPGGSLRLSCAASQFWIRSHGMQWVRQAPGKGLEYVAGISSDGSWFRVAAAVEGRFTISRDDSKNTAYLQMNSLRAEDTAVYYCARDFSTGYGADSIDAWGQGTLVTVSS VL: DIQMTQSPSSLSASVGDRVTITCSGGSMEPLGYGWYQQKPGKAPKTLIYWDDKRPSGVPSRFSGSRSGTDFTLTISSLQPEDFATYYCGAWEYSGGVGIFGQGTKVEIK and write its reported kon.
1.6e+06 M⁻¹ s⁻¹
